Tested on: HEK-293T
experimentNotes: Multiplex assay against HEK293T
Format: toxicity, cell-based
particulars: human, 24 h, 1 µM, compound concentration 1 uM, replicate 2
Binary call on Population Healthy Nuclei (%) with cut-off 70%: strictly below means Y, and equality or higher means N.

>>> labelclass("Cc1ccccc1C(c1ccccc1C)N1C2CCC1CC(O)(c1ccccc1)C2 (stereo unspecified)")
"Y"
>>> labelclass("C=CC(=O)Nc1ccc2[nH]c(=O)n(C3CCN(Cc4ccc(-c5nc6cc[nH]c(=O)c6cc5-c5ccccc5)cc4)CC3)c2c1")
"N"
>>> labelclass("C=CC(=O)Nc1cccc(Oc2nc(Nc3ccc(N4CCN(C)CC4)cc3OC)ncc2Cl)c1")
"N"
>>> labelclass("CNC(=O)Nc1ccc(-c2nc(N3CC4CCC(C3)O4)c3cnn(C4CCC5(CC4)OCCO5)c3n2)cc1")
"Y"
>>> labelclass("CC(C)(C)NC[C@H](O)COc1nsnc1N1CCOCC1")
"Y"

Next, consider the following molecule.
// query Input C=CC(=O)Nc1cccc(Sc2nc(Nc3ccc(N4CCN(C)CC4)cc3)ncc2Cl)c1 ; condition: Population Healthy Nuclei (%) strictly below 70%. Does it hold?
// result Y

---

Tested on: Fibroblast
experimentNotes: Multiplex assay against human fibroblast
Format: toxicity, cell-based
particulars: 48 h, 10 µM, compound concentration 10 uM, replicate 1
List of Population Pyknosed Nuclei (%) values.
# value in %; strip the unit string

Solved cases (6 shown):
>>> experimentalresult("COc1cc2ncn(-c3cc(OCc4ccccc4C(F)(F)F)c(C(N)=O)s3)c2cc1OC [GW843682X]")
27
>>> experimentalresult("Cc1ccc2c(c1)c1c(n2CCc2ccc(C)nc2)CCN(C)C1 [LATREPIRDINE]")
3
>>> experimentalresult("CC(C)c1noc(N2CCC(COc3ccc(-c4ccc(S(C)(=O)=O)cc4)nc3)CC2)n1")
18
>>> experimentalresult("CCc1nn(CCCN2CCN(c3cccc(Cl)c3)CC2)c(=O)n1CCOc1ccccc1.Cl [NEFAZODONE HYDROCHLORIDE]")
4
>>> experimentalresult("CC(C)NC(=O)N1CC[C@H](NC2=Nc3cc(F)ccc3N(CC(F)F)c3ccc(Cl)cc32)C1")
10
>>> experimentalresult("C[C@]12CC[C@@H]3c4ccc(O)cc4CC[C@H]3[C@@H]1CC[C@@H]2O")
5

// sample CN1CCN(Cc2ccc(Nc3ncc(Cl)c(Nc4ccccc4S(=O)(=O)N(C)C)n3)cc2)CC1 , its Population Pyknosed Nuclei (%) was 24

// sample CC(C)OC(=O)N1CCC(Oc2ncnc3c2cnn3-c2ccc(S(C)(=O)=O)cc2F)CC1 , its Population Pyknosed Nuclei (%) was 23

---

List of Population Pyknosed Nuclei (%) values.
System: HEK-293T
experimentNotes: Multiplex assay against HEK293T
Assay type: toxicity, cell-based
particulars: human, 12 h, 10 µM, compound concentration 10 uM, replicate 1
# value in %; strip the unit string

>>> experimentalresult("CNC(=O)Nc1ccc2c(c1)[C@@]1(CC2)OC(=O)N(CC(=O)N(Cc2ccc(F)cc2)[C@@H](C)C(F)(F)F)C1=O")
22

// sample CN1CCN(Cc2ccc(Nc3ncc(Cl)c(Nc4ccccc4S(=O)(=O)N(C)C)n3)cc2)CC1 , its Population Pyknosed Nuclei (%) was 47

// sample Cl.O=C(O)c1cc(-c2ccc(C3CCNCC3)cc2)c2ccc(-c3ccc(C(F)(F)F)cc3)cc2c1 , its Population Pyknosed Nuclei (%) was 62

// sample CC(C)(C)NC[C@H](O)COc1nsnc1N1CCOCC1 , its Population Pyknosed Nuclei (%) was 49

// sample CCc1ccc(OCc2ccccc2C(=O)Nc2ccc3nc(C)cc(N)c3c2)cc1.Cl , its Population Pyknosed Nuclei (%) was 80

// sample O=c1cc(N2CCOCC2)oc2c(-c3cccc4c3sc3ccccc34)cccc12 , its Population Pyknosed Nuclei (%) was 68

// sample Cc1ccccc1C(c1ccccc1C)N1C2CCC1CC(O)(c1ccccc1)C2 (configuration not stated) , its Population Pyknosed Nuclei (%) was 54

---

Test system: U2OS
experimentNotes: Multiplex assay against U2OS
Assay type: toxicity, cell-based
particulars: human, 48 h, 1 µM, compound concentration 1 uM, replicate 1
Binary call on Population Fragmented Nuclei (%) with cut-off 10%: strictly below means 1, and equality or higher means -1.

// query Input Cc1ccc2c(c1)c1c(n2CCc2ccc(C)nc2)CCN(C)C1 [LATREPIRDINE] ; condition: Population Fragmented Nuclei (%) strictly below 10%. Does it hold?
// result 1

---

List of Population Mitochondria Different-Phenotype (%) values.
Test system: HEK-293T
experimentNotes: Multiplex assay against HEK293T
Assay type: toxicity, cell-based
particulars: human, 24 h, 10 µM, compound concentration 10 uM, replicate 1
# value in %; strip the unit string

Solved cases (4 shown):
>>> experimentalresult("Cc1ccc2c(c1)c1c(n2CCc2ccc(C)nc2)CCN(C)C1 [LATREPIRDINE]")
96
>>> experimentalresult("COc1ccc(-c2ccc3ncc4c(c3c2)n(-c2ccc(N3CCNCC3)c(C(F)(F)F)c2)c(=O)n4C)cn1.O=C(O)/C=C\\C(=O)O [BGT-226]")
0
>>> experimentalresult("CC1=C(C(=O)Nc2cc3cn[nH]c3cc2F)C(c2ccc(C(F)(F)F)cc2)CC(=O)N1 (stereo not given)")
61
>>> experimentalresult("CC(C)c1noc(N2CCC(COc3ccc(-c4ccc(S(C)(=O)=O)cc4)nc3)CC2)n1 [GSK-1292263]")
78

// sample Cl.O=C(O)c1cc(-c2ccc(C3CCNCC3)cc2)c2ccc(-c3ccc(C(F)(F)F)cc3)cc2c1 , its Population Mitochondria Different-Phenotype (%) was 78

---

Tested on: U2OS
experimentNotes: Multiplex assay against U2OS
Format: toxicity, cell-based
particulars: human, 24 h, 1 µM, compound concentration 1 uM, replicate 2
observable: Population Hoechst High Intensity Objects (%)
# value in %; strip the unit string

Solved cases (2 shown):
>>> experimentalresult("COc1cc(Nc2nccc(-c3cnn4nc(OC)ccc34)n2)cc(C(F)(F)F)c1")
2
>>> experimentalresult("CCc1ccc(OCc2ccccc2C(=O)Nc2ccc3nc(C)cc(N)c3c2)cc1.Cl")
17

Read the next record carefully.
Query CC(C)c1noc(N2CCC(COc3ccc(-c4ccc(S(C)(=O)=O)cc4)nc3)CC2)n1 [GSK-1292263] on U2OS; Population Hoechst High Intensity Objects (%) returned: 2

---

Test system: Fibroblast
experimentNotes: Incucyte cell viability with human fibroblast; further: filed as whole numbers so only -1 and 0 and 1 occur
Format: toxicity, cell-based
particulars: 18 h, 10 µM, compound concentration 10 uM, replicate number 1, timepoint 18 hours
List of Growth Rate values.
Would you mind answering with just the numeric figure?

Solved cases (4 shown):
>>> experimentalresult("O=C(c1cc2c(cc1F)OC(c1ccc(F)cc1)(c1ccc(Cl)cc1Cl)O2)N1CCOCC1 (stereo not given)")
1
>>> experimentalresult("COc1cc(C(=O)NS(=O)(=O)c2ccccc2C)ccc1Cc1cn(C)c2ccc(NC(=O)OC3CCCC3)cc12")
1
>>> experimentalresult("CC1(C)CCC(C)(C)c2cc(C(=O)Nc3ccc(C(=O)O)cc3)ccc21")
1
>>> experimentalresult("CC(C)N(CCCNC(=O)Nc1ccc(C(C)(C)C)cc1)C[C@H]1O[C@@H](n2cc(Br)c3c(N)ncnc32)[C@H](O)[C@@H]1O")
1

Read the next record carefully.
// sample COc1ccc(-c2ccc3ncc4c(c3c2)n(-c2ccc(N3CCNCC3)c(C(F)(F)F)c2)c(=O)n4C)cn1.O=C(O)/C=C\C(=O)O , its Growth Rate was 0

---

Tested on: U2OS
experimentNotes: Multiplex assay against U2OS
Type: toxicity, cell-based
particulars: human, 24 h, 1 µM, compound concentration 1 uM, replicate 1
observable: Population Pyknosed Nuclei (%)

>>> experimentalresult("CC1=C(C(=O)Nc2cc3cn[nH]c3cc2F)C(c2ccc(C(F)(F)F)cc2)CC(=O)N1 (stereo not drawn)")
"8%"
>>> experimentalresult("CC(C)CC(=O)Nc1[nH]nc2c1CN(C(=O)C1CCN(C)CC1)C2(C)C")
"3%"

// sample COc1cc(Nc2nccc(-c3cnn4nc(OC)ccc34)n2)cc(C(F)(F)F)c1 , its Population Pyknosed Nuclei (%) was 24%

---

Tested on: HEK-293T
experimentNotes: Multiplex assay against HEK293T
Type: toxicity, cell-based
particulars: human, 48 h, 1 µM, compound concentration 1 uM, replicate 2
Binary call on Population Mitotic Cells (%) with cut-off 60%: strictly below means met, and equality or higher means not met.

Sample answers from the record:
>>> labelclass("CNC(=O)Nc1ccc(-c2nc(N3CC4CCC(C3)O4)c3cnn(C4CCC5(CC4)OCCO5)c3n2)cc1")
"not met"
>>> labelclass("Cc1ccc(C)c(Oc2ccncc2C(=O)N2CCN(C3CC3)c3ccccc32)c1")
"not met"

Next, consider the following compound.
// query Input CC1=C(C(=O)Nc2cc3cn[nH]c3cc2F)C(c2ccc(C(F)(F)F)cc2)CC(=O)N1 (stereo unspecified) ; condition: Population Mitotic Cells (%) strictly below 60%. Does it hold?
// result not met
